Give measured pIC50 for each item. Keep answers brief.
Molecular target: XIAP BIR2-3 (Homo sapiens, UniProt P98170, C202A/C213G)
Construct: His-BIR2-3 (125-356, C202A/C213G, XIAP)
Sequence (P98170 125-356 C202A/C213G): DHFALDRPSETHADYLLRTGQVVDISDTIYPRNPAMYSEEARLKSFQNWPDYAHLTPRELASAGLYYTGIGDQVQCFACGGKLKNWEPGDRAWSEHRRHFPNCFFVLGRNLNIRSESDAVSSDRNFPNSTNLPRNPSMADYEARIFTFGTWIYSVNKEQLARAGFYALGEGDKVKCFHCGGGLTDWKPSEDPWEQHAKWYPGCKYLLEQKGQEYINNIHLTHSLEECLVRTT
Experiment: XIAP-BIR2-3 dimeric SMAC Peptide Homogeneous Time Resolved Fluorescence (HTRF) Assay
Type: binding
Settings: 0.5 nM N-His-BIR2-3 (125-356, C202A/C213G, XIAP), 20 nM fluorescein labeled dimeric SMAC peptide; HTRF signal; read-out: XIAP BIR2-3 IC50
Where a name gives a salt, the structure may show the parent alone.
Just the number, please; pIC50 means minus log10 of the concentration in mol/L.

Quick note, pIC50 for `CN[C@@H](C)C(=O)N[C@H](C(=O)N1C[C@@H](c2ccc3c(c2)CN(C(=O)[C@@H](NC(=O)[C@H](C)NC)C(C)(C)C)[C@H](C(=O)N[C@@H]2CCCc4ccccc42)C3)C[C@H]1C(=O)N[C@@H](Cc1ccccc1)C(=O)N(C)CCC(C)C)C(C)(C)C` landed at 7.06

Quick note, pIC50 for `CCN[C@@H](C)C(=O)N[C@H](C(=O)N1C[C@@H](NC(=O)c2ccc3c(c2)CN(C(=O)[C@@H](NC(=O)[C@H](C)NC)C(C)(C)C)[C@H](C(=O)N[C@@H]2CCCc4ccccc42)C3)C[C@H]1C(=O)N[C@@H]1CCCc2ccccc21)C(C)(C)C` landed at 7.82

Quick note, pIC50 for `CN[C@@H](C)C(=O)N[C@H](C(=O)N1Cc2cc([C@H]3C[C@@H](C(=O)N[C@@H]4CCCc5ccccc54)N(C(=O)[C@@H](NC(=O)[C@H](C)NC)C(C)(C)C)C3)ccc2C[C@H]1C(=O)N[C@H](C)c1ccccc1F)C(C)(C)C` landed at 8.52

Quick note, pIC50 for `CN[C@@H](C)C(=O)N[C@@H](Cc1cc(F)cc(F)c1)C(=O)N1Cc2cc(C(=O)N[C@H]3C[C@@H](C(=O)N[C@@H]4CCCc5ccccc54)N(C(=O)[C@@H](NC(=O)[C@H](C)NC)C(C)(C)C)C3)ccc2C[C@H]1C(=O)N[C@@H]1CCCc2ccccc21` landed at 8.00

Quick note, pIC50 for CN[C@@H](C)C(=O)N[C@H](C(=O)N1CC(c2ccc3c(c2)CN(C(=O)[C@@H](NC(=O)[C@H](C)NC)C24CC5CC(CC(C5)C2)C4)[C@H](C(=O)NC2CCCc4ccccc42)C3)C[C@H]1C(=O)NC1CCCc2ccccc21)C(C)(C)C (stereo partly drawn) [Example 87, TFA] landed at 8.23

Quick note, pIC50 for `CCC(CC)[C@H](NC(=O)[C@H](C)NC)C(=O)N1C[C@@H](NC(=O)c2ccc3c(c2)CN(C(=O)[C@@H](NC(=O)[C@H](C)NC)C(C)(C)C)[C@H](C(=O)N[C@@H]2CCCc4ccccc42)C3)C[C@H]1C(=O)N[C@@H]1CCCc2ccccc21` landed at 8.70

----------
Give measured IC50 for each item. Keep answers brief.
Molecular target: XIAP BIR3 (Homo sapiens)
Construct: His-BIR3 (241-356, XIAP)
Sequence (P98170 241-356): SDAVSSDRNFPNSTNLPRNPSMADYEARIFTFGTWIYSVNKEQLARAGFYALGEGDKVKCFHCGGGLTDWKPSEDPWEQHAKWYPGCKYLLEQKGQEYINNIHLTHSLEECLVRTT
Experiment: XIAP-BIR3/SMAC Homogeneous Time Resolved Fluorescence (HTRF) Assay
Type: binding
Details: 1 nM N-His-BIR3 (241-356, XIAP), 5 nM fluorescein labeled SMAC peptide; HTRF signal; read-out: XIAP BIR3 IC50
Express it in nM; write the number only.

Quick note, IC50 for CCN[C@@H](C)C(=O)N[C@H](C(=O)N1Cc2cc(C(=O)N[C@H]3C[C@@H](C(=O)N[C@@H]4CCCc5ccccc54)N(C(=O)[C@@H](NC(=O)[C@H](C)NC)C(C)(C)C)C3)ccc2C[C@H]1C(=O)N[C@@H]1CCCc2ccccc21)C(CC)CC [Example 18] landed at 9

Quick note, IC50 for CN[C@@H](C)C(=O)N[C@H](C(=O)N1Cc2ccc(C(=O)N[C@H]3C[C@@H](C(=O)N[C@@H]4CCCc5ccccc54)N(C(=O)[C@@H](NC(=O)[C@H](C)NC)C(C)(C)C)C3)cc2C[C@@H]1C(=O)N[C@@H]1CCCc2ccccc21)C(C)(C)C [Example 26] landed at 11

Quick note, IC50 for CN[C@@H](C)C(=O)N[C@H](C(=O)N1C[C@@H](c2ccc3c(c2)CN(C(=O)[C@@H](NC(=O)[C@H](C)NC)C(C)(C)C)[C@H](C(=O)N[C@@H]2CCCc4ccccc42)C3)C[C@H]1C(=O)N[C@@H](Cc1ccccc1)C(=O)NC1CC1)C(C)(C)C [Example 64] landed at 25.6
